- Protocol Summary: Pharmacokinetic studies: plasma levels of PMM, TMM and TRIMM by gas liquid chromatography
- Format: in vivo, man
- Details: human, plasma, intravenous, 500 mg m-2, patient seven, 500 mg m-2, hepatic function normal; value + s.e.; read-out: PMM plasma t1/2 (overall elimination phase)
Endpoint Label: half-life (h)
State the answer as a number, implicitly in h.

Lookup: Any idea what half-life was measured for `CNc1nc(N(C)C)nc(N(C)C)n1` ?
Found: 1.14

----------
- Protocol Summary: Pharmacokinetic studies: plasma levels of PMM, TMM and TRIMM by gas liquid chromatography
- Assay type: in vivo, man
- Details: human, plasma, intravenous, 300 mg m-2, patient one, 300 mg m-2, hepatic function normal; value + s.e.; read-out: PMM plasma t1/2 (overall elimination phase)
Endpoint Label: half-life (h)
State the answer as a number, implicitly in h.

Lookup: Any idea what half-life was measured for `CNc1nc(N(C)C)nc(N(C)C)n1` ?
Found: 1.21

----------
- Protocol Summary: Pharmacokinetic studies: plasma levels of PMM, TMM and TRIMM by gas liquid chromatography
- Format: in vivo, man
- Details: human, plasma, intravenous, 500 mg m-2, patient three, 500 mg m-2, hepatic function abnormal; value + s.e.; read-out: PMM plasma t1/2 (overall elimination phase)
Endpoint Label: half-life (h)
State the answer as a number, implicitly in h.

Lookup: Any idea what half-life was measured for CNc1nc(N(C)C)nc(N(C)C)n1 [PMM, Pentamethylmelamine] ?
Found: 2.12

----------
- Protocol Summary: Pharmacokinetic studies: plasma levels of PMM, TMM and TRIMM by gas liquid chromatography
- Type: in vivo, man
- Details: human, plasma, intravenous, patients with normal liver function, mean + SEM, n = 3; read-out: PMM t1/2, group mean
Endpoint Label: half-life (h)
State the answer as a number, implicitly in h.

Lookup: Any idea what half-life was measured for `CNc1nc(N(C)C)nc(N(C)C)n1` ?
Found: 1.08

----------
- Protocol Summary: Pharmacokinetic studies: plasma levels of PMM, TMM and TRIMM by gas liquid chromatography
- Type: in vivo, man
- Details: human, plasma, iv; i.v. PMM 100-300 mg m-2, n = 6, mean + SEM; read-out: PMM AUC 0-12h (converted)
Endpoint Label: AUC(0-t) (µM·h)
State the answer as a number, implicitly in µM·h.

Lookup: Any idea what AUC(0-t) was measured for `CNc1nc(N(C)C)nc(N(C)C)n1` ?
Found: 72.3

----------
- Protocol Summary: Pharmacokinetic studies: plasma levels of PMM, TMM and TRIMM by gas liquid chromatography
- Type: in vivo, man
- Details: human, plasma, intravenous, 100 mg m-2, patient six, 100 mg m-2, hepatic function normal; value + s.e.; read-out: PMM plasma t1/2 (overall elimination phase)
Endpoint Label: half-life (min)
State the answer as a number, implicitly in min.

Lookup: Any idea what half-life was measured for `CNc1nc(N(C)C)nc(N(C)C)n1` ?
Found: 54.1

----------
- Protocol Summary: Pharmacokinetic studies: plasma levels of PMM, TMM and TRIMM by gas liquid chromatography
- Type: in vivo, man
- Details: human, plasma, intravenous, 300 mg m-2, patient eight, 300 mg m-2, hepatic function abnormal; value + s.e.; read-out: PMM plasma t1/2 (overall elimination phase)
Endpoint Label: half-life (h)
State the answer as a number, implicitly in h.

Lookup: Any idea what half-life was measured for `CNc1nc(N(C)C)nc(N(C)C)n1` ?
Found: 2.54
